Tested on: HCT-116
procedureText: Cytotoxicity against human HCT116 cells after 4 days by MTT assay
Type: functional, cell-based
testParameters: HCT-116, 96 h
measurementKind: IC50 (nM)

1. C=CCOc1cc2c(cc1OC)[C@@]1(CS[C@@H]3c4c(OC(C)=O)c(C)c5c(c4[C@@H](COC1=O)N1[C@@H]3[C@H]3c4c(cc(C)c(OC)c4OCC=C)C[C@@H]([C@@H]1C#N)N3C)OCO5)N(C(=O)/C=C/c1ccccc1)CC2; 630
2. COc1cc2c(cc1O)CCN(C(=O)c1cccc([N+](=O)[O-])c1)[C@]21CS[C@@H]2c3c(OC(C)=O)c(C)c4c(c3[C@@H](COC1=O)N1[C@@H]2[C@H]2c3c(cc(C)c(OC)c3O)C[C@@H]([C@@H]1C#N)N2C)OCO4; 0.14
3. COc1cc2c(cc1O)CCN(C(=O)c1ccccc1)[C@]21CS[C@@H]2c3c(OC(C)=O)c(C)c4c(c3[C@@H](COC1=O)N1[C@@H]2[C@H]2c3c(cc(C)c(OC)c3O)C[C@@H]([C@@H]1C#N)N2C)OCO4; 0.37
